The origin of these recorded values is patent US8119805B2.

# system: B1R receptor of the rat (rB1R) (Rattus norvegicus, UniProt P97583)
# Construct: expressed in transfected cells; host or cells: CHO K1 cells
# Sequence (P97583 1-337): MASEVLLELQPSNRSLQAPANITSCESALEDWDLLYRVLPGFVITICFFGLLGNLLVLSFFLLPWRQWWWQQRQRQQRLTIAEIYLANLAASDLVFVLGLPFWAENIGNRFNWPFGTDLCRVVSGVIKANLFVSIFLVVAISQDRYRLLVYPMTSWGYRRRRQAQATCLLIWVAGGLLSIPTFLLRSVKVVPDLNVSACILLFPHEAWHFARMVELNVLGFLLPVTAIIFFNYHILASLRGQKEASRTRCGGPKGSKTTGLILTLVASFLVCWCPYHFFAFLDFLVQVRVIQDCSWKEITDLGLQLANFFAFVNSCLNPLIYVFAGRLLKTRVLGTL
# assay details: Functional investigation on the bradykinin 1 receptor (B1R), FLIPR Ca2+ assay, rB1R cells
# Type: cell-based
# test conditions: test substance 10 μM; CHO K1 cells transfected with rat B1R gene; Fluo-4 Ca2+ signal; agonist Des-Arg9-bradykinin at EC80; % of maximum achievable inhibition; read-out: B1R antagonism, rat [10 μM] % inhibition
Where a name gives a salt, the structure may show the parent alone.
inhibition at 10 µM vs 80%: at or above is class 1, below is class 0.

Q) Hello, I need to know if "O=S(=O)(CCC[C@@H]1CCCN1S(=O)(=O)c1ccc(Cl)cc1Cl)N1[C@@H]2CC[C@H]1C[C@H](Oc1ccncc1)C2" has measured inhibition at 10 µM not below 80%. Thanks!
A) class 1

Q) Answer whether inhibition at 10 µM of O=S(=O)(CCC1CCN(S(=O)(=O)c2cccc(Cl)c2Cl)C1)N1CCN(c2ccncc2)CC1 (centres unmarked) [Example 21, hydrochloride] is greater than or equal to 80%.
A) class 0

Q) Is inhibition at 10 µM for "O=S(=O)(CCC[C@@H]1CCCN1S(=O)(=O)Cc1cccc(Cl)c1)N1CCC(Oc2ccncc2)CC1" at or above 80%?
A) class 0

Q) Record "Cc1ccc(S(=O)(=O)N2CCC[C@H]2CCCS(=O)(=O)N2CCC3(CCN(c4ccncc4)CC3)CC2)c2ccccc12" ; criterion: inhibition at 10 µM no lower than 80%. Met?
A) class 1

Q) Does COc1cc(C)c(S(=O)(=O)N2CCCCC2CCCS(=O)(=O)N2CCC3(CC2)CCC(OCCN2CCCC2)(c2cccnc2)CC3)c(C)c1 (centres unmarked) have a reported inhibition at 10 µM of at least 80%?
A) class 1

Q) Does the compound O=S(=O)(CCC[C@H]1CCCN1S(=O)(=O)c1ccc2ccccc2c1)N1CCN(c2ccncc2)CC1 [Example 2, hydrochloride] have recorded inhibition at 10 µM that is 80% or more?
A) class 1

Q) Given Cc1cc(C)c(S(=O)(=O)N2CCCC2CCCCS(=O)(=O)N2CCC(CCN3CCCC3)CC2)c(C)c1 (centres unmarked) , state whether its inhibition at 10 µM is at least 80%.
A) class 0

Q) Does the reported inhibition at 10 µM for COc1cc(C)c(S(=O)(=O)N2c3ccccc3CC2CCCS(=O)(=O)N2CCC(O)(c3cccnc3)CC2)c(C)c1 (centres unmarked) fall at or above the 80% mark?
A) class 1

Q) Assess whether reported inhibition at 10 µM for CN1CCC(N2CCN(S(=O)(=O)CCCCC3CCCN3S(=O)(=O)c3cccc4ccccc34)CC2)CC1 (centres unmarked) [Example 5, dihydrochloride] sits at 80% or higher.
A) class 0

Q) Please indicate if the recorded inhibition at 10 µM for COc1cc(C)c(S(=O)(=O)N2CCCC2CCCCS(=O)(=O)N2CCC(CCN3CCCC3)CC2)c(C)c1C (centres unmarked) meets or exceeds 80%.
A) class 0

Q) Is inhibition at 10 µM at least 80%? Consider "Cc1cccc(Cl)c1S(=O)(=O)N1CCC[C@H]1CCCS(=O)(=O)N1CCN(C2CCN(C)CC2)CC1"
A) class 1

Q) Quick check: does "CN1CCC(N2CCN(S(=O)(=O)CCC[C@@H]3CCCN3S(=O)(=O)c3c(Cl)cc(Cl)cc3Cl)CC2)CC1" have inhibition at 10 µM greater than or equal to 80%?
A) class 1

* * *

# system: B1R receptor of the rat (rB1R) (Rattus norvegicus, UniProt P97583)
# Construct: expressed in transfected cells; host or cells: CHO K1 cells
# Sequence (P97583 1-337): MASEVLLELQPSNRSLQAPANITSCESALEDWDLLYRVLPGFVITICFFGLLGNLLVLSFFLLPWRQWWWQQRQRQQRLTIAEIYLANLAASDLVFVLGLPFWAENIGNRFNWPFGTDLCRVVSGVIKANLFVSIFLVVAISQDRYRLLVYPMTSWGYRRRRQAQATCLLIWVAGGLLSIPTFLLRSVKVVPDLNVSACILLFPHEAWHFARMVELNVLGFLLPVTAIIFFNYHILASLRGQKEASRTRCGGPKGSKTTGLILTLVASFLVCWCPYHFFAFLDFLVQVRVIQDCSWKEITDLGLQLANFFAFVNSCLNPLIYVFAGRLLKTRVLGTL
# assay details: Functional investigation on the bradykinin 1 receptor (B1R), FLIPR Ca2+ assay, rB1R cells
# Format: cell-based
# test conditions: test substance 10 μM; CHO K1 cells transfected with rat B1R gene; Fluo-4 Ca2+ signal; agonist Des-Arg9-bradykinin at EC80; % of maximum achievable inhibition; read-out: B1R antagonism, rat [10 μM] % inhibition
Where a name gives a salt, the structure may show the parent alone.
parameter measured: inhibition at 10 µM (%)
Field: numeric (%). Do not append units.

Q) // map Cc1cc(C)c(S(=O)(=O)N2CCC(CCS(=O)(=O)N3CCN(c4ccncc4)CC3)C2)c(C)c1 (centres unmarked) [Example 20, hydrochloride] to recorded inhibition at 10 µM (system: B1R receptor of the rat (rB1R) (Rattus norvegicus, UniProt P97583))
A) 75

Q) Hello, I am looking for reported inhibition at 10 µM with B1R receptor of the rat (rB1R) (Rattus norvegicus, UniProt P97583) for COc1cc(C)c(S(=O)(=O)N2CCCC(CCCS(=O)(=O)N3CCC(CCN4CCCC4)CC3)C2)c(C)c1C (centres unmarked) [Example 10, hydrochloride] . Could you help?
A) 10

Q) Tell me reported inhibition at 10 µM for Cc1cc(C)c(S(=O)(=O)N2CCCC(CCCS(=O)(=O)N3CCC(CCN4CCCC4)CC3)C2)c(C)c1 (centres unmarked) [Example 11, hydrochloride] , tested with B1R receptor of the rat (rB1R) (Rattus norvegicus, UniProt P97583).
A) 26

Q) Field: inhibition at 10 µM (B1R receptor of the rat (rB1R) (Rattus norvegicus, UniProt P97583)). Entry: Cc1cc(C)c(S(=O)(=O)N2CCCC2CCCCS(=O)(=O)N2CCN(C3CCN(C)CC3)CC2)c(C)c1 (centres unmarked) [Example 42, dihydrochloride]
A) 26

Q) Record lookup: for B1R receptor of the rat (rB1R) (Rattus norvegicus, UniProt P97583), what inhibition at 10 µM belongs to "COc1cc(C)c(S(=O)(=O)N2C[C@@H](F)C[C@H]2CCCS(=O)(=O)N2CCC(Oc3ccncc3)CC2)c(C)c1" ?
A) 89

Q) Write down the reported inhibition at 10 µM of "CC1(C)CCc2cc(S(=O)(=O)N3CCC[C@H]3CCCS(=O)(=O)N3CCC(Oc4ccncc4)CC3)ccc2O1" , test system: B1R receptor of the rat (rB1R) (Rattus norvegicus, UniProt P97583).
A) 12

Q) Item "O=S(=O)(CCC[C@@H]1CCCN1S(=O)(=O)c1ccc2ccccc2c1)N1CCC(Oc2ccncc2)CC1" with B1R receptor of the rat (rB1R) (Rattus norvegicus, UniProt P97583) - inhibition at 10 µM?
A) 36

Q) Provide value of inhibition at 10 µM for this record tested with B1R receptor of the rat (rB1R) (Rattus norvegicus, UniProt P97583): O=S(=O)(CCC1CCN(S(=O)(=O)c2cc(Cl)c(Cl)cc2Cl)C1)N1CCC(CCN2CCCC2)CC1 (centres unmarked) [Example 18, hydrochloride]
A) 11

Q) What reported inhibition at 10 µM corresponds to "O=S(=O)(CCC[C@@H]1CCCN1S(=O)(=O)c1cccc(Cl)c1Cl)N1CCC(Oc2ccncc2)CC1" on B1R receptor of the rat (rB1R) (Rattus norvegicus, UniProt P97583)?
A) 87

Q) For the record COc1cc(C)c(S(=O)(=O)N2CCCCC2CCCS(=O)(=O)N2CCC3(CCN(c4ccncc4)CC3)CC2)c(C)c1 (centres unmarked) , what value of inhibition at 10 µM is listed for B1R receptor of the rat (rB1R) (Rattus norvegicus, UniProt P97583)?
A) 95

Q) Form entry - test system: B1R receptor of the rat (rB1R) (Rattus norvegicus, UniProt P97583); read-out: inhibition at 10 µM; molecule: Cc1cccc(Cl)c1S(=O)(=O)N1CCC[C@H]1CCCS(=O)(=O)N1CCC2(CCN(c3ccncc3)C2)C1 (some centres unmarked)
A) 104

Q) Give the reported inhibition at 10 µM for "COc1cc(C)c(S(=O)(=O)N2CCC[C@@H]2CCCS(=O)(=O)N2CCN(C3CCN(C)CC3)CC2)c(C)c1" (system: B1R receptor of the rat (rB1R) (Rattus norvegicus, UniProt P97583)).
A) 96

Q) Form field: inhibition at 10 µM recorded for "Cc1cccc(Cl)c1S(=O)(=O)N1CCC[C@H]1CCCS(=O)(=O)N1CC(N2[C@@H]3CC[C@H]2C[C@H](Oc2ccncc2)C3)C1" with B1R receptor of the rat (rB1R) (Rattus norvegicus, UniProt P97583) (enter value)
A) 98

Q) // fetch B1R receptor of the rat (rB1R) (Rattus norvegicus, UniProt P97583) inhibition at 10 µM for COc1cc(C)c(S(=O)(=O)N2CCC(CCS(=O)(=O)N3CCC(CCN4CCCC4)CC3)C2)c(C)c1 (centres unmarked) [Example 25, hydrochloride]
A) 90
